Reference for the values: paper PMC10303271

Target: Alpha2Beta4 (Rattus norvegicus, UniProt P12389+P12392)
Construct: purchased NIMH Psychoactive Drug Screening Program (PDSP)
Sequence (P12389 28-511): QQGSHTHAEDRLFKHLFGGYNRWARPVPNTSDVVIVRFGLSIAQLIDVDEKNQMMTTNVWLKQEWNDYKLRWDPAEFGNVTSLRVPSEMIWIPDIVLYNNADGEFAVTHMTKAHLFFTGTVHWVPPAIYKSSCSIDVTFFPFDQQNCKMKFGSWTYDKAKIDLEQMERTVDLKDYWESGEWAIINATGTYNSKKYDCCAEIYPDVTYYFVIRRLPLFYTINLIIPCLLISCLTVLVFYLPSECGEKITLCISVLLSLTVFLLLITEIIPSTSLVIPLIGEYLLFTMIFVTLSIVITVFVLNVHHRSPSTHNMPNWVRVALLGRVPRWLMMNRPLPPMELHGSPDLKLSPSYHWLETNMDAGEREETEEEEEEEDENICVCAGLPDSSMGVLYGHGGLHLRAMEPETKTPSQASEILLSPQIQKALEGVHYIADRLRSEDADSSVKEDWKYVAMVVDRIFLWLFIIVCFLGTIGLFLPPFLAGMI
Sequence (P12392 21-495): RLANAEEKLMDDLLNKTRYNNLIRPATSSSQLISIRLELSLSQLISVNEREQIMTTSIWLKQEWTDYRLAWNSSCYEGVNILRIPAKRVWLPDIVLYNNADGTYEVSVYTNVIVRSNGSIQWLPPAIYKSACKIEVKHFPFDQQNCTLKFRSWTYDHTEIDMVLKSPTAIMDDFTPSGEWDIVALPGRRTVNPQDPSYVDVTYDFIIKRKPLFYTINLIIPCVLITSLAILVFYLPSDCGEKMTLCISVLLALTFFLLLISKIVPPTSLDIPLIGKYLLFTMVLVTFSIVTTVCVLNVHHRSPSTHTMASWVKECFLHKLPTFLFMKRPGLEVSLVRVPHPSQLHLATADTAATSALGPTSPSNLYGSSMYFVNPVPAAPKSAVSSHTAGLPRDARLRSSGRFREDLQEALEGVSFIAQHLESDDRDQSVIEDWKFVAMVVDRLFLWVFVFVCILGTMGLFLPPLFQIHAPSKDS
Assay: PDSP primary binding Alpha2Beta4
Settings: primary binding, 10,000 nM; last figure of the line = mean of the 4 before it; read-out: Alpha2Beta4, PDSP raw data, mean
For each entry below, report its inhibition at 10 µM value.

Record excerpt, results attached:
CCc1noc(-c2ncn3c2[C@@H](C)N=C(c2ccccc2F)c2cc(C4CC4)ccc2-3)n1 6.41%
CC(C)c1noc(-c2ncn3c2[C@@H](C)N=C(c2ccccc2F)c2cc(Cl)ccc2-3)n1 -5.48%
C#Cc1ccc2c(c1)C(c1ccccn1)=N[C@@H](C)c1c(C(=O)N(C)C)ncn1-2 6.58%

Next:
Could you tell me which inhibition at 10 µM is on file for C#Cc1ccc2c(c1)C(c1ccccc1Cl)=N[C@H](C)c1c(C(=O)N(C)CC)ncn1-2 ?
3.06%

----------
Target: kappa opioid receptors (KOR) (Homo sapiens, UniProt P41145)
Sequence (P41145 whole entry): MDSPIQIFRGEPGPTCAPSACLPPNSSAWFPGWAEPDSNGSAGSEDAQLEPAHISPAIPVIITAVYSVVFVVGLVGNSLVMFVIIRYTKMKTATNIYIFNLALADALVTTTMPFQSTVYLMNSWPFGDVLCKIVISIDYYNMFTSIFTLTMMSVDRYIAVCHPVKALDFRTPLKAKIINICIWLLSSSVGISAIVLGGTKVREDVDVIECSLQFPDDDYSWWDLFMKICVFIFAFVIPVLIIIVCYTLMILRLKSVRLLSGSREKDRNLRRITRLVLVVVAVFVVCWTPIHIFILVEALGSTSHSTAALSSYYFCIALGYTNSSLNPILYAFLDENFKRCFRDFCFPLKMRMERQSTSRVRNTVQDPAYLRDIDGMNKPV
Test: PDSP radioligand binding at KOR
measuredParameter: Ki (nM)
One number for each entry, in nM.

Record excerpt, results attached:
compound	unitInfo	Ki
CCc1noc(-c2ncn3c2[C@@H](C)N=C(c2ccccc2F)c2cc(C4CC4)ccc2-3)n1 [Compound 47]	nM	248
CC(C)c1noc(-c2ncn3c2[C@@H](C)N=C(c2ccccc2F)c2cc(Cl)ccc2-3)n1 [Compound 37]	nM	46.3

Next:
Could you tell me which Ki is on file for C#Cc1ccc2c(c1)C(c1ccccc1Cl)=N[C@H](C)c1c(C(=O)N(C)CC)ncn1-2 [Compound 29] ?
392

----------
For each entry below, report its inhibition at 10 µM value.
Target: Alpha3Beta4 (Rattus norvegicus, UniProt P04757+P12392)
Construct: purchased NIMH Psychoactive Drug Screening Program (PDSP)
Sequence (P04757 26-499): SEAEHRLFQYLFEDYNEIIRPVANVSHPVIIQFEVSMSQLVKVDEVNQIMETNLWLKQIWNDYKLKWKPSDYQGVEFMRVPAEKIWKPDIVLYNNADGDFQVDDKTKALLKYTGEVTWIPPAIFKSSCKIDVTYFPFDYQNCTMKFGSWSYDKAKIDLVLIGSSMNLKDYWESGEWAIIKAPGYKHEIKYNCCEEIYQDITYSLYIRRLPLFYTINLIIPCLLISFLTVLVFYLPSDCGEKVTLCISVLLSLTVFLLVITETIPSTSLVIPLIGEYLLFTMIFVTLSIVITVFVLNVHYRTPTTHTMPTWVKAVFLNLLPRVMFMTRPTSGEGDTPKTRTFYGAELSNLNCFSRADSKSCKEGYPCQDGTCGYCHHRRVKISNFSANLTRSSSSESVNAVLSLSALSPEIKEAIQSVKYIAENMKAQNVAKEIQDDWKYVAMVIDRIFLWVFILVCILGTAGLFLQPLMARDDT
Sequence (P12392 21-495): as the sequence (P12392 21-495) above
Experiment: PDSP primary binding Alpha3Beta4
Settings: primary binding, 10,000 nM; last figure of the line = mean of the 4 before it; read-out: Alpha3Beta4, PDSP raw data, mean
One number for each entry, in %.

C[C@H]1N=C(c2ccccc2F)c2cc(Cl)ccc2-n2cnc(-c3nc(C4CC4)no3)c21 12.4

Provide each entry's inhibition at 10 µM from the list below.
1. C#Cc1ccc2c(c1)C(c1ccccn1)=N[C@@H](C)c1c(C(=O)N(C)C)ncn1-2
2. CCc1noc(-c2ncn3c2[C@@H](C)N=C(c2ccccc2F)c2cc(-c4ccccc4)ccc2-3)n1
3. CC(C)c1noc(-c2ncn3c2[C@@H](C)N=C(c2ccccc2F)c2cc(Cl)ccc2-3)n1
4. C#Cc1ccc2c(c1)C(c1ccccc1Cl)=N[C@H](C)c1c(C(=O)N(C)CC)ncn1-2
5. CCc1noc(-c2ncn3c2CN=C(c2ccccc2F)c2cc(C4CC4)ccc2-3)n1
6. C#Cc1ccc2c(c1)C(c1ccccc1Cl)=N[C@H](C)c1c(C(=O)NC)ncn1-2

1. -0.5
2. 12
3. 18.8
4. 0.02
5. 7.56
6. 11.3

----------
Target: Alpha4Beta4 (Rattus norvegicus, UniProt P09483+P12392)
Construct: purchased NIMH Psychoactive Drug Screening Program (PDSP)
Sequence (P09483 31-630): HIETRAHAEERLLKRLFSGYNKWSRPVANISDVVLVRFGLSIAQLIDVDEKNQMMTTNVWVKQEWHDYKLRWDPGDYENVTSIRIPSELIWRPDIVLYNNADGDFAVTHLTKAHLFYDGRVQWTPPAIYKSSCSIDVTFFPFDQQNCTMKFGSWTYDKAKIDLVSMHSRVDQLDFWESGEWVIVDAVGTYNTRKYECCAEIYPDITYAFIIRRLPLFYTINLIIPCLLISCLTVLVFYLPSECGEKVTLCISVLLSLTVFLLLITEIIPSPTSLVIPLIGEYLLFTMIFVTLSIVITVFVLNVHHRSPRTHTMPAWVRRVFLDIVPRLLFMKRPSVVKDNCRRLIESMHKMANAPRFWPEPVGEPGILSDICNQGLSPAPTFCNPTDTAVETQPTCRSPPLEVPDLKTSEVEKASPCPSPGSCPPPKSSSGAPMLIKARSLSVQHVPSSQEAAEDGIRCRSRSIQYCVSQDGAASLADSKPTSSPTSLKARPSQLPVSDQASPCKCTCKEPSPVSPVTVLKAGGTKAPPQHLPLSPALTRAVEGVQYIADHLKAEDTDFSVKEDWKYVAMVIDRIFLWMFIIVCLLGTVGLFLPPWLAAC
Sequence (P12392 21-495): as the sequence (P12392 21-495) above
Assay: PDSP primary binding Alpha4Beta4
Conditions: primary binding, 10,000 nM; last figure of the line = mean of the 4 before it; read-out: Alpha4Beta4, PDSP raw data, mean
Protocol: To determine if any off-target receptor-binding effects are present, all the novel ligands were sent to the National Institute of Mental Health (NIMH), Psychoactive Drug Screening Program (PDSP). […] The hERG-binding was also determined. […] The binding of a ligand to a receptor, ion channel, or transporter was determined in the […] of 10 µM of the appropriate reference compound. […] Radioactivity was then counted on a Microbeta counter. […]
measuredParameter: inhibition at 10 µM (%)
Numbers only, in %.

C#Cc1ccc2c(c1)C(c1ccccc1Cl)=N[C@H](C)c1c(C(=O)NC)ncn1-2 14.4
C[C@H]1N=C(c2ccccc2F)c2cc(-c3ccccc3)ccc2-n2cnc(C(=O)N(C)C)c21 1.99
CCc1noc(-c2ncn3c2[C@@H](C)N=C(c2ccccc2F)c2cc(-c4ccccc4)ccc2-3)n1 17.9

Next:
Could you tell me which inhibition at 10 µM is on file for C#Cc1ccc2c(c1)C(c1ccccc1F)=N[C@H](C)c1c(C(=S)N(C)C)ncn1-2 ?
1.99

----------
System: Sigma 2
Assay: PDSP primary binding Sigma 2
Conditions: primary binding, 10,000 nM; last figure of the line = mean of the 4 before it
For each entry below, report its Sigma 2, PDSP raw data, mean value.
Give bare numbers, in %.

Record excerpt, results attached:
compound	subjectOfTest	measuredParameter	resultNumber
C[C@H]1N=C(c2ccccc2F)c2cc(Cl)ccc2-n2cnc(-c3nc(C4CC4)no3)c21 [Compound 38]	Sigma 2	Sigma 2, PDSP raw data, mean	80.86
CCc1noc(-c2ncn3c2CN=C(c2ccccc2F)c2cc(C4CC4)ccc2-3)n1 [Compound 44]	Sigma 2	Sigma 2, PDSP raw data, mean	74.98

Provide each entry's Sigma 2, PDSP raw data, mean from the list below.
1. CC(C)c1noc(-c2ncn3c2[C@@H](C)N=C(c2ccccc2F)c2cc(Cl)ccc2-3)n1 [Compound 37]
2. C#Cc1ccc2c(c1)C(c1ccccc1Cl)=N[C@H](C)c1c(C(=O)N(C)CC)ncn1-2 [Compound 29]
3. CCc1noc(-c2ncn3c2[C@@H](C)N=C(c2ccccc2F)c2cc(-c4ccccc4)ccc2-3)n1 [Compound 35]
4. CCc1noc(-c2ncn3c2[C@@H](C)N=C(c2ccccc2F)c2cc(C4CC4)ccc2-3)n1 [Compound 46]
5. C#Cc1ccc2c(c1)C(c1ccccn1)=N[C@@H](C)c1c(C(=O)NC)ncn1-2 [Compound 23]

76.17
13.69
85.36
89.78
8.85

Provide each entry's Sigma 2, PDSP raw data, mean from the list below.
1. C#Cc1ccc2c(c1)C(c1ccccc1F)=N[C@H](C)c1c(C(=S)N(C)C)ncn1-2 [Compound 33]
2. CCc1noc(-c2ncn3c2[C@@H](C)N=C(c2ccccc2F)c2cc(Cl)ccc2-3)n1 [Compound 36]
3. C[C@H]1N=C(c2ccccc2F)c2cc(-c3ccccc3)ccc2-n2cnc(C(=O)N(C)C)c21 [Compound 5]

1: 43.63; 2: 81.41; 3: 43.63
